meta.source: patent US20070134256A1

Molecular target: dengue type 3 virus (DENV-3), strain H87, virions (dengue type 3 virus, UniProt P27915 281-773; P27915 115-280)
Assay: ELISA, virion-coated plate, Fab from ~140 µg/ml
Task for the reader: assign each of the following binders its reported ELISA titer of Fab binding.

For this binder ( chimpanzee Fab 1B2 (Fab, V domains shown) VH: EVQLLESGPGLVKPSQTLSLTCAVSGGSITSDHYFWSWMRQAPGRGLEWIGYISYRGTTYYNPSLKSRVTMSVTAAKNTLYLQMDGLRPEDTAVYYCARASVTAGMPAAGTLDHWGQGTLVTVSS VL: ELQMTQSPSSLSASVGDRVTITCRASQGISSELNWYQQKPGKAPKLLIYDASSLESGVPSRFSGSGSGTDFTLTISSLQPEDFATYYCQHFNSFPWTFGQGTKLEIKR ), measured ELISA titer of Fab binding is 3.8 log10 of reciprocal dilution

For this binder ( chimpanzee Fab 1A5 (Fab, V domains shown) VH: EVQLLESGGGLVQPGGSRRLSCAASGFTISDNVMHWVRQAPGKGLEWVALIYSADTTHYADSVKGRFTISRDNSKNTLYLQMDSLRPEDTAVYYCAREYCTGDTCFAHFDYWGQGTLVSVSS VL: ELQMTQSPSSVSASVGDTVTIACRASQSITNYLSWYQQKPGKAPKLLIYHASTLQSGIPSRFSGSGSGTDFTLTISSLQPDDFATYYCHYGYGTHTFGQGTKLEIKR ), measured ELISA titer of Fab binding is 3.8 log10 of reciprocal dilution

For this binder ( chimpanzee Fab 3A2 (Fab, V domains shown) VH: VQLLEQSGGGLVQPGGSRRLSCAVSGFTISDNVMHWVRQAPGKGLEWVALIYSADTTHYADSVKGRFTISRDNSKNTLYLQMDSLRPEDTAVYYCAREYCTGGTCFAHFDYWGQGTLVTVSS VL: ELTQSPSSVSASVGDTVTIACRASQSITNYLSWYQQKPGKAPKLLIYHASTLQSGIPSRFSGSGSGTDFTLTISSLQPDDFATYYCHYGYGTHTFGQGTKLEIKR ), measured ELISA titer of Fab binding is 3.8 log10 of reciprocal dilution

For this binder ( chimpanzee Fab 2H7 (Fab, V domains shown) VH: EVQLLESGGGLVQPGGSRRLSCAASGFTISDNVMHWVRQAPGKGLEWVALIYSADSTHYADSVKGRFTISRDNSKNTLYLQMDGLRPEDTAVYYCAREYCTGGTCFAHFDYWGQGTLVTVSS VL: ELQMTQSPSSLSASVGDRVTITCRASQSITNYLSWYQQKPGKAPKLLISYSSTLQSGVPSRFSGSGSGTDFTLTISSLQPEDFATYYCHYGYGTHTFGPGTKVDIKR ), measured ELISA titer of Fab binding is 3.6 log10 of reciprocal dilution

For this binder ( chimpanzee Fab 3E4 (Fab, V domains shown) VH: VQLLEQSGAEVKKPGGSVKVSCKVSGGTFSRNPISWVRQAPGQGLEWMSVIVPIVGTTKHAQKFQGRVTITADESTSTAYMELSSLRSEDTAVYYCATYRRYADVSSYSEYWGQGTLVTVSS VL: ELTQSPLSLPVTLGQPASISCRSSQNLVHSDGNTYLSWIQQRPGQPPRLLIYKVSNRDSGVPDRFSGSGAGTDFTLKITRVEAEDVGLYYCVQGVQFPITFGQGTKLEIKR ), measured ELISA titer of Fab binding is 3.6 log10 of reciprocal dilution

For this binder ( chimpanzee Fab 1A10 (Fab, V domains shown) VH: VQLLEESGAEVKKPGSSVKVSCKVSGGTFSRNPISWVRQAPGQGLEWMGVIVPIVGTTKHAQKFQGRVTIIADESTSTAYMELSSLRSEDTAVYYCATYYADGSSYSEYWGQGTLVTVSS VL: ELQMTQSPLSLSVAPGQPASISCKSSQSLLHSDGNTYLFWYLQKSGQSPQLLIYGLSNRASGVPDRFSGSGSGTDFTLKISQVEAEDVGVFYCMQGTQLPYTFGQGTKLEIKR ), measured ELISA titer of Fab binding is 3.6 log10 of reciprocal dilution

For this binder ( chimpanzee Fab 5H2 (Fab, V domains shown) VH: EVQLLESGPGLVKPSETLSLTCTVSGGSISDFYWSWLRQSPGKGLEWIGYAHSRVSAYYNPSLKSRVTISVDTSKNQLSLRLSAVTAADTALYYCARQGTGTTGVSEDPFDLWGQGTKVIVSL VL: ELQMTQSPSSLSASVGDRVTITCRASQDISIRLNWYQQKPGKAPKLLIYDASTLESGVPSRFSGSGSGTDFTLTISSLQPEDFATYYCQQFNSYPLTFGGGTKVEIKR ), measured ELISA titer of Fab binding is < 1 log10 of reciprocal dilution
